Tested on: PAF-Induced Bronchoconstriction
PROTOCOL NOTES: PAF-Induced Bronchoconstriction Assay
Type: in vivo, guinea pig
TEST CONTEXT: Cavia porcellus; 50 mg/kg, po; 2 hours pretreatment
Threshold check on inhibition in vivo at 50 mg/kg: at or above 90% gives Fulfilled, strictly below gives Not fulfilled.

[
  {
    "SMILES CODE": "C=CCc1cc(C(=O)N[C@H](C)CCCc2cccnc2)ccc1-c1ccc(OC)c(OC)c1",
    "CLASS NAME": "Fulfilled"
  },
  {
    "SMILES CODE": "COc1ccc(-c2ccc(C(=O)N[C@H](C)CCCc3cccnc3)cc2Br)cc1OC",
    "CLASS NAME": "Fulfilled"
  },
  {
    "SMILES CODE": "COc1cccc(-c2ccc(C(=O)NCCCCc3cccnc3)cc2)c1",
    "CLASS NAME": "Not fulfilled"
  }
]

Where do the numbers come from? From patent US4916145A.
